- target-under-test: T1, human ANGPTL3/8 complex (human, UniProt Q9Y5C1 17-460; Q6UXH0 22-198, limits assumed)
- T1 construct: also called hANGPTL3/8 complex; ANGTPL3/8 complex
- T1 sequence 1: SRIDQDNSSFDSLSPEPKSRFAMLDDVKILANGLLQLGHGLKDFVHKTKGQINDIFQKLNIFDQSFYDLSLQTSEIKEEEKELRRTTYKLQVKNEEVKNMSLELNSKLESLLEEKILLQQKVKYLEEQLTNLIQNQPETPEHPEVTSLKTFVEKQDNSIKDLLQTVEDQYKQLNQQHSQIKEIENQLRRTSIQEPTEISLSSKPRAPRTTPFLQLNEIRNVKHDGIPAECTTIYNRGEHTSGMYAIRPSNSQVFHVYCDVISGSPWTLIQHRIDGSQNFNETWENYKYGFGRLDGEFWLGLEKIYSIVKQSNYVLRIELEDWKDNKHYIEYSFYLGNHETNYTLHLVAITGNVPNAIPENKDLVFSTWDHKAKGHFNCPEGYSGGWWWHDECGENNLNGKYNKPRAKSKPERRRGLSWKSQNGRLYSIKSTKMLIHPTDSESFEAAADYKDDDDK
- T1 sequence 2: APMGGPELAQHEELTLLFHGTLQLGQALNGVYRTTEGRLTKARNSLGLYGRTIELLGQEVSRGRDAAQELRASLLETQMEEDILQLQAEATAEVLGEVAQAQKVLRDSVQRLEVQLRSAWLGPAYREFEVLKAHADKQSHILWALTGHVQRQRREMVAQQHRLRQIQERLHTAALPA
- protocol-text: ELISA; Ab captured by anti-human Fc; biotinylated antigen at 100 nM
quantity: OD at 560 nm (OD 560 nm)
Quick reminder: number only, in OD 560 nm, skip the unit.

Consider the worked cases shown below.
Ab with LC variant having a D31S mutation (SEQ ID NO:21) and a HC of SEQ ID NO:6 (antibody, human IgG4 S228P, kappa, F234A L235A, V domains shown, also called D31S Variant Ab; D31S Ab) VH: QVTLKESGPTLVKPTQTLTLTCTFSGFSLSISGVGVGWIRQPPGKALEWLALIYRNDDKRYSPSLKSRLTITKDTSKNQVVLTLTNMDPVDTATYYCARTYSSGWYGNWFDPWGQGTLVTVSS VL: DIVMTQTPLSLPVTPGEPASISCRSSQSLLSSDDGNTYLDWYLQKPGQSPQLLIYMLSYRASGVPDRFSGSGSGTDFTLKISRVEAEDVGIYYCMQRIEFPLTFGGGTKVEIKR | 2.47
anti-ANGPTL3/8 complex Ab having a LC of SEQ ID NO:5 and a HC of SEQ ID NO:6 (antibody, human IgG4 S228P, kappa, F234A L235A, V domains shown, In the ELISA assays tested as IgG from CHO supernatants; also called the Ab) VH: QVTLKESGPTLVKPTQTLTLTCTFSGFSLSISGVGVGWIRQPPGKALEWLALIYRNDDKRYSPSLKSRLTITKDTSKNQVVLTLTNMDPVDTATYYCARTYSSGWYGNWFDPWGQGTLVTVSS VL: DIVMTQTPLSLPVTPGEPASISCRSSQSLLDSDDGNTYLDWYLQKPGQSPQLLIYMLSYRASGVPDRFSGSGSGTDFTLKISRVEAEDVGIYYCMQRIEFPLTFGGGTKVEIKR | 2.71

Prompt: # OD at 560 nm lookup, item Ab with LC variant having a E99Q mutation (SEQ ID NO:25) and a HC of SEQ ID NO:6 (antibody, human IgG4 S228P, kappa, F234A L235A, V domains shown, also called E99Q Variant Ab; E99Q Ab) VH: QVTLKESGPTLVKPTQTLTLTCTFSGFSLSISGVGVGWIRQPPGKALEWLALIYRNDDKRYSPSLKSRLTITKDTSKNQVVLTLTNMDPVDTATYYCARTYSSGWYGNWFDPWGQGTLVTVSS VL: DIVMTQTPLSLPVTPGEPASISCRSSQSLLDSDDGNTYLDWYLQKPGQSPQLLIYMLSYRASGVPDRFSGSGSGTDFTLKISRVEAEDVGIYYCMQRIQFPLTFGGGTKVEIKR
Completion: 2.47

Prompt: Query Ab with LC variant having a D33A mutation (SEQ ID NO:22) and a HC of SEQ ID NO:6 (antibody, human IgG4 S228P, kappa, F234A L235A, V domains shown, also called D33A Variant Ab; D33A Ab) VH: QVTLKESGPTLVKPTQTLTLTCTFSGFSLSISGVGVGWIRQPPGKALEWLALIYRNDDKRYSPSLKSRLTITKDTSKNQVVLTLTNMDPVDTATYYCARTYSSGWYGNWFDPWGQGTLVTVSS VL: DIVMTQTPLSLPVTPGEPASISCRSSQSLLDSADGNTYLDWYLQKPGQSPQLLIYMLSYRASGVPDRFSGSGSGTDFTLKISRVEAEDVGIYYCMQRIEFPLTFGGGTKVEIKR next
Completion: 2.39

Source: patent US20200199213A1
